- TARGET_ENTITY: GSPT1 (Homo sapiens, UniProt P15170+Q96SW2)
- Sequence (P15170 whole entry): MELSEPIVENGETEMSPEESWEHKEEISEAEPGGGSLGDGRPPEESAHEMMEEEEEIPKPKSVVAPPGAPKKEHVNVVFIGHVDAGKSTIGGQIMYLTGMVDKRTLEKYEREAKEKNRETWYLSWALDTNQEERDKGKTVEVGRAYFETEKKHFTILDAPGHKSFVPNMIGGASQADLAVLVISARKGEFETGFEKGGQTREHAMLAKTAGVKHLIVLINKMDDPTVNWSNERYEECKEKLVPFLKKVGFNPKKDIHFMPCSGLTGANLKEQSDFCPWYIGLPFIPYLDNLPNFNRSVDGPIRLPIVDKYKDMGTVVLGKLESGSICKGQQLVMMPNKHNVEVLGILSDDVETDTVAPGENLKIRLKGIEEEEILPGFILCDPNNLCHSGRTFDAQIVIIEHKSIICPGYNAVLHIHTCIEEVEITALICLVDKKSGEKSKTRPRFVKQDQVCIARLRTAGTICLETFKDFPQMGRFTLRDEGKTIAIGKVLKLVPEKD
- Sequence (Q96SW2 whole entry): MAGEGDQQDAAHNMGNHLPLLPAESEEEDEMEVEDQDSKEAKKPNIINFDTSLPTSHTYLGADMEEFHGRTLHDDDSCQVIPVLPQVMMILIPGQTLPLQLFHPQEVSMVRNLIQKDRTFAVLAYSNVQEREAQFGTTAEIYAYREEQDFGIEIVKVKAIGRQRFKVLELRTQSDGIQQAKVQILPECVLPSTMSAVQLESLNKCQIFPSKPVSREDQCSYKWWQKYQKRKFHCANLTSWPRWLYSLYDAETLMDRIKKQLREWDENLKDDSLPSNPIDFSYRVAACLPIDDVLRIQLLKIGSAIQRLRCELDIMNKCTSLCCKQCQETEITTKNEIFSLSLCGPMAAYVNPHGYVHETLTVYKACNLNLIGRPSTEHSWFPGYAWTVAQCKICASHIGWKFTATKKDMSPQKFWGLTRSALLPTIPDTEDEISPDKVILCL
- Sequence (Q16531 whole entry partner): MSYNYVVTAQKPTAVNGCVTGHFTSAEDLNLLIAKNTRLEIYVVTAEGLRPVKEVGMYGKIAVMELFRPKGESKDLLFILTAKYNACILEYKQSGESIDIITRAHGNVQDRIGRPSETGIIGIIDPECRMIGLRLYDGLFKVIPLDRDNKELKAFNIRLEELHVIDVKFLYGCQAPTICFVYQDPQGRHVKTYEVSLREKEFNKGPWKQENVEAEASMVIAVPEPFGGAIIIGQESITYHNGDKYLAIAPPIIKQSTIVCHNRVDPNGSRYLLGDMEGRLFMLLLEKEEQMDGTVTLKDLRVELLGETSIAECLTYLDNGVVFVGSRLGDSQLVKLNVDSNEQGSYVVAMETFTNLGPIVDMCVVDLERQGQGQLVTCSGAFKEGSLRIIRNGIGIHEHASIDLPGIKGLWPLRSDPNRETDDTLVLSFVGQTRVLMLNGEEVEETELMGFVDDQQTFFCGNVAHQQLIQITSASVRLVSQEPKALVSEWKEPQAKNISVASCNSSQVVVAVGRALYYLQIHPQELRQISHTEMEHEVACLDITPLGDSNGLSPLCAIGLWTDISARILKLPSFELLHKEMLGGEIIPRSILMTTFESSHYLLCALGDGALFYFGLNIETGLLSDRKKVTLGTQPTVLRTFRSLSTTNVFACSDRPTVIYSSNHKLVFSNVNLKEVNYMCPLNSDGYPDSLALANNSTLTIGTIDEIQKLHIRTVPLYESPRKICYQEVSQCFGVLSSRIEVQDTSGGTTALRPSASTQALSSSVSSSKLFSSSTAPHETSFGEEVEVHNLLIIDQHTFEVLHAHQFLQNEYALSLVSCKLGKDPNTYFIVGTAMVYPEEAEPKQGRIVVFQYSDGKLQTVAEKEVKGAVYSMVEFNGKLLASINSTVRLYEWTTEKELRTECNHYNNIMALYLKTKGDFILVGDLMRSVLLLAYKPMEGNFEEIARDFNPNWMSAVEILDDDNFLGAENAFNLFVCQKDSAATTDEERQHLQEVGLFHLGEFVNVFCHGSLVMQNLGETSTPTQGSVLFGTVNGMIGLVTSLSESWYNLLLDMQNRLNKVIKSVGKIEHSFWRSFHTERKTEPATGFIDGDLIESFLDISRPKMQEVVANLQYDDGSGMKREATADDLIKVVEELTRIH
- TEST_DESCRIPTION: HiBiT degradation assay, GSPT1, Procedure A
- Format: cell-based
- Parameters: HiBit-GSPT1 KI HEK293(LgBit) Cells; host or cells: HEK293(LgBit) knock-in cells
- CONDITION_PARAMETERS: six hours
ASSAY_METRIC: DC50

Request the reported DC50 associated with Cn1cnc(-c2ccc3c(c2)CN(C2CCC(=O)NC2=O)C3=O)c1-c1cnn(C2CCCCC2)c1 (centres unmarked)
< 0.025 µM

Same again, this time with Cn1cnc(-c2ccc3c(c2)CN(C2CCC(=O)NC2=O)C3=O)c1-c1ccc2c(c1)CCO2 (centres unmarked)
< 0.025 µM

Same again, this time with Cn1cnc(-c2ccc3c(c2)CN(C2CCC(=O)NC2=O)C3=O)c1-c1cc2ccccc2[nH]1 (centres unmarked)
< 0.025 µM

Same again, this time with O=C1CCC(N2Cc3cc(-c4cnn(C(F)F)c4-c4ccc5c(c4)CCO5)ccc3C2=O)C(=O)N1 (centres unmarked)
≥ 0.025 µM

Same again, this time with Cn1ncc(-c2ccc3c(c2)CN(C2CCC(=O)NC2=O)C3=O)c1-c1ccc2cncn2c1 (centres unmarked)
≥ 0.025 µM

Same again, this time with CN1CCN(S(=O)(=O)c2ccc(-c3c(-c4ccc5c(c4)CN(C4CCC(=O)NC4=O)C5=O)ncn3C)cc2)CC1 (centres unmarked)
≥ 0.025 µM

Same again, this time with Cn1cnc(-c2ccc3c(c2)CN(C2CCC(=O)NC2=O)C3=O)c1-c1ccn(-c2ccc(F)cc2)n1 (centres unmarked)
< 0.025 µM

Same again, this time with O=C1CCC(N2Cc3cc(-c4cn(CC(F)(F)F)nc4-c4ccccc4)ccc3C2=O)C(=O)N1 (centres unmarked)
≥ 0.025 µM

Same again, this time with Cn1ncc(-c2ccc3c(c2)CN(C2CCC(=O)NC2=O)C3=O)c1-c1ccc2c(c1)ncn2C (centres unmarked)
≥ 0.025 µM

Same again, this time with Cn1ncc(-c2ccc3c(c2)CN(C2CCC(=O)NC2=O)C3=O)c1C1=CCOC1 (centres unmarked)
≥ 0.025 µM

Same again, this time with O=C1CCC(N2Cc3cc(-c4cn(C(F)F)nc4-c4ccc5c(c4)CCO5)ccc3C2=O)C(=O)N1 (centres unmarked)
≥ 0.025 µM

Same again, this time with Cn1cnc(-c2ccc3c(c2)CN(C2CCC(=O)NC2=O)C3=O)c1-c1cnn(Cc2ccccc2)c1 (centres unmarked)
< 0.025 µM

Same again, this time with Cc1cc(-c2nc(-c3ccc4c(c3)CN(C3CCC(=O)NC3=O)C4=O)cn2C)ccc1Cl (centres unmarked)
≥ 0.025 µM

Same again, this time with Cn1cc(-c2ccc3c(c2)CN(C2CCC(=O)NC2=O)C3=O)nc1-c1ccoc1 (centres unmarked)
< 0.025 µM
